These entries and their values trace back to ChEMBL document CHEMBL1155010.

system: Kidney; assay: Biodistribution in Sprague-Dawley rat kidney assessed per gram of tissue at 1 MBq, iv after 4 hrs; type: ADME, organism-based; conditions: in vivo
Quantity kind: Drug uptake (%ID)
Response body: numeric value in %ID, unit text excluded.

Summary for this compound, CCN(CC)C(=O)Cc1c(-c2ccc(OCC[18F])cc2)nc2ccc(Cl)cn12 : Drug uptake is 1.3

Summary for this compound, CCN(CC)C(=O)Cc1c(-c2ccc(OCCC[18F])cc2)nc2ccc(Cl)cn12 : Drug uptake is 1.8

Summary for this compound, CCN(CC)C(=O)Cc1c(-c2ccc(OCC[18F])cc2)nn2c(C)cc(C)nc12 [DPA-714 F-18] : Drug uptake is 2.4

Proceeding to the next compound to report its Drug uptake.
Summary for this compound, CCN(CC)C(=O)Cc1c(-c2ccc(OCCC[18F])cc2)nn2c(C)cc(C)nc12 : Drug uptake is 3.2

====

Item-by-item account of remaining at 0.25 h
assay: Metabolic stability in Sprague-Dawley rat plasma assessed as drug remaining at 30 MBq after 0.25 hrs by Radio-HPLC analysis; assay type: ADME, cell-free; details: read-out: Stability
Response body: numeric value in %, unit text excluded.

Summary for this compound, CCN(CC)C(=O)Cc1c(-c2ccc(OCCC[18F])cc2)nc2ccc(Cl)cn12 : remaining at 0.25 h is 10

New cases:
Summary for this compound, CCN(CC)C(=O)Cc1c(-c2ccc(OCCC[18F])cc2)nn2c(C)cc(C)nc12 : remaining at 0.25 h is 10

====

Item-by-item account of Drug uptake
test system: Heart; experiment: Biodistribution in Sprague-Dawley rat heart assessed per gram of tissue at 1 MBq, iv after 1 hr; format: ADME, organism-based; conditions: in vivo
Response body: numeric value in %ID, unit text excluded.

Record excerpt, results attached:
// Drug uptake (Heart) for CCN(CC)C(=O)Cc1c(-c2ccc(OCC[18F])cc2)nc2ccc(Cl)cn12 = 4.6

// Drug uptake (Heart) for CCN(CC)C(=O)Cc1c(-c2ccc(OCCC[18F])cc2)nc2ccc(Cl)cn12 = 6.4

// Drug uptake (Heart) for CCN(CC)C(=O)Cc1c(-c2ccc(OCCC[18F])cc2)nn2c(C)cc(C)nc12 = 8.7

Proceeding to the next compound to report its Drug uptake.
// Drug uptake (Heart) for CCN(CC)C(=O)Cc1c(-c2ccc(OCC[18F])cc2)nn2c(C)cc(C)nc12 = 6.4

====

tested on: Heart; experiment: Biodistribution in Sprague-Dawley rat heart assessed per gram of tissue at 1 MBq, iv after 0.25 hrs; assay type: ADME, organism-based; settings: in vivo
Item-by-item account of Drug uptake
Response body: numeric value in %ID, unit text excluded.

Record excerpt, results attached:
Summary for this compound, CCN(CC)C(=O)Cc1c(-c2ccc(OCC[18F])cc2)nn2c(C)cc(C)nc12 : Drug uptake is 5.8

Summary for this compound, CCN(CC)C(=O)Cc1c(-c2ccc(OCCC[18F])cc2)nn2c(C)cc(C)nc12 : Drug uptake is 9

Summary for this compound, CCN(CC)C(=O)Cc1c(-c2ccc(OCCC[18F])cc2)nc2ccc(Cl)cn12 : Drug uptake is 7.8

Proceeding to the next compound to report its Drug uptake.
Summary for this compound, CCN(CC)C(=O)Cc1c(-c2ccc(OCC[18F])cc2)nc2ccc(Cl)cn12 : Drug uptake is 4.3
